Test system: Saccharomyces cerevisiae
Experiment: protein stability index of tFT-peptide fusion (C-terminal peptide) (PSI (0-1 scale)); higher = more stable (slower turnover)
Settings: genetic background: wild type; temperature: 30 C
Assign protein stability index to each entry below.
Respond with the number and no other words.

Form: sequence = DALDIANRIGYI [RPL25 C-terminal 12 aa] ; protein stability index = 0.683

Form: sequence = QVHPSRQELSFT [DON1 C-terminal 12 aa] ; protein stability index = 0.701

Form: sequence = NYLKKHSEKQDA [ATP19 C-terminal 12 aa] ; protein stability index = 0.723

Form: sequence = LASEAAVGCNKS [YKL156C-A C-terminal 12 aa] ; protein stability index = 0.745

Form: sequence = CADCGTILNNFR [DGR2 C-terminal 12 aa] ; protein stability index = 0.748

Form: sequence = RELREHTKLLHS [YIL082W-A C-terminal 12 aa] ; protein stability index = 0.597

Form: sequence = FSMLANRITIGL [YJL175W C-terminal 12 aa] ; protein stability index = 0.64

Form: sequence = AEELWADIVGSA [TRP2 C-terminal 12 aa] ; protein stability index = 0.684

Form: sequence = TIGWLQESLAGI [HOT1 C-terminal 12 aa] ; protein stability index = 0.684

Form: sequence = EHIGAQNTGDGR [YER187W C-terminal 12 aa] ; protein stability index = 0.679

Form: sequence = GLLRKGLVKRDI [YHR193C-A C-terminal 12 aa] ; protein stability index = 0.677

Form: sequence = KVHQGKYNGPGL [AI2 C-terminal 12 aa] ; protein stability index = 0.727

Form: sequence = NPWKSQIRDWKN [YBL100W-C C-terminal 12 aa] ; protein stability index = 0.77

Form: sequence = DFSKFKDSRLYD [YND1 C-terminal 12 aa] ; protein stability index = 0.671

Form: sequence = RVSLEKEAKQHG [ERV2 C-terminal 12 aa] ; protein stability index = 0.673

Form: sequence = TKEAKRRAMKKK [UME6 C-terminal 12 aa] ; protein stability index = 0.677

Form: sequence = ELTDFKYPSNYE [PUT2 C-terminal 12 aa] ; protein stability index = 0.711

Form: sequence = SFSRIDCCLPDE [TDA5 C-terminal 12 aa] ; protein stability index = 0.707

Form: sequence = KRKFLGEHRKTL [TOK1 C-terminal 12 aa] ; protein stability index = 0.673

Form: sequence = YNDHRLPKRAKK [HSF1 C-terminal 12 aa] ; protein stability index = 0.735

Form: sequence = KFRKDEDKSVKQ [TAN1 C-terminal 12 aa] ; protein stability index = 0.702

Form: sequence = VNRQLEMDLPIE [YKL066W C-terminal 12 aa] ; protein stability index = 0.712

Form: sequence = ELKEGRTFLGRS [APQ13 C-terminal 12 aa] ; protein stability index = 0.695

Form: sequence = QLIDIAKKMGIL [BIR1 C-terminal 12 aa] ; protein stability index = 0.276

Form: sequence = AIAKSIPKRVGL [PUT1 C-terminal 12 aa] ; protein stability index = 0.7

---

Test system: Saccharomyces cerevisiae
Experiment: protein stability index of tFT-peptide fusion (C-terminal peptide) (PSI (0-1 scale)); higher = more stable (slower turnover)
Details: genetic background: wild type; temperature: 30 C
Assign protein stability index to each entry below.
Respond with the number and no other words.

Form: sequence = FVPMDFILKFSR ; protein stability index = 0.699

Form: sequence = ALSCLVCLFGLL ; protein stability index = 0.545

Form: sequence = FPRPPSVLACRP ; protein stability index = 0.645

Form: sequence = RRKRTKGRGRAQ ; protein stability index = 0.699

Form: sequence = NYCLYFKLSRLS ; protein stability index = 0.39

Form: sequence = GGWGSRGRVGDI ; protein stability index = 0.744

Form: sequence = NGTGGGSSLAFG ; protein stability index = 0.644

Form: sequence = YFCVELSVFGFF ; protein stability index = 0.4

Form: sequence = LKKTLNGRRKMI ; protein stability index = 0.416

Form: sequence = AWLPVLPLVSFF ; protein stability index = 0.621

Form: sequence = NRYKINHRIKCK ; protein stability index = 0.576

Form: sequence = GEGALGLRENLQ ; protein stability index = 0.665

Form: sequence = PTTNHLSNRHNI ; protein stability index = 0.685

Form: sequence = PPTPAPLSPPYV ; protein stability index = 0.712

Form: sequence = RGARWRAGIGRG ; protein stability index = 0.739

Form: sequence = CVGPSVERGFWG ; protein stability index = 0.689

Form: sequence = PGFTLLDFCLYH ; protein stability index = 0.725

Form: sequence = PLFSASLFSLSL ; protein stability index = 0.747

Form: sequence = SHRYFFLAFSGL ; protein stability index = 0.655

Form: sequence = PPPPPASTPASS ; protein stability index = 0.681

Form: sequence = KKKKKNKKNKKY ; protein stability index = 0.709

Form: sequence = APSPLHFPPPPT ; protein stability index = 0.67

Form: sequence = RQSSPKQDRKPS ; protein stability index = 0.679

Form: sequence = RLINCIYVLMLP ; protein stability index = 0.398

Form: sequence = KAGVWLWVGGGG ; protein stability index = 0.739

Form: sequence = HSGDLYFWGCRD ; protein stability index = 0.706

Form: sequence = ALFPRLVRPGFV ; protein stability index = 0.697

Form: sequence = CISIRKEERRKI ; protein stability index = 0.701

Form: sequence = DLGPLFVSWSTW ; protein stability index = 0.778

Form: sequence = PPPSPPSTTPPL ; protein stability index = 0.672

Form: sequence = CLFFLVYELSIL ; protein stability index = 0.317

Form: sequence = LWGAGAGPEDVG ; protein stability index = 0.698

Form: sequence = ACGGGSNVHRAG ; protein stability index = 0.747

Form: sequence = SCFRFFFLFLFF ; protein stability index = 0.322

Form: sequence = KKYIEKKFNIQK ; protein stability index = 0.664

Form: sequence = HPPKPHHPSNPC ; protein stability index = 0.691

Form: sequence = NRGRIRARVNEA ; protein stability index = 0.708

Form: sequence = MWVGLWSVGLCG ; protein stability index = 0.717

Form: sequence = KVVGRLGVERVR ; protein stability index = 0.753

Form: sequence = FTVRSPSCISAE ; protein stability index = 0.631

Form: sequence = FELTSATWRGCF ; protein stability index = 0.685

---

Assign protein stability index to each entry below.
Tested on: Saccharomyces cerevisiae
Test: protein stability index of tFT-peptide fusion (C-terminal peptide) (PSI (0-1 scale)); higher = more stable (slower turnover)
Details: genetic background: cdc34-1; temperature: 37 C
Respond with the number and no other words.

Form: sequence = IFIVLDFRCVSS ; protein stability index = 0.302

Form: sequence = NSCHFYSRFYLA ; protein stability index = 0.651

Form: sequence = CFSLLFYTLSLL ; protein stability index = 0.47

Form: sequence = VWFFGVVLGGLW ; protein stability index = 0.527

Form: sequence = VRNKFSYVLRLN ; protein stability index = 0.488

Form: sequence = VRLHIAMWLRRC ; protein stability index = 0.299

Form: sequence = LTACRYVCFLLF ; protein stability index = 0.575

Form: sequence = FLIVLLVIFFGF ; protein stability index = 0.275

Form: sequence = LVSLCYAYPRYC ; protein stability index = 0.646

Form: sequence = CWILLFGCVWVG ; protein stability index = 0.179

Form: sequence = VCLVFVVRPCIR ; protein stability index = 0.549

Form: sequence = IVSFRLDLSLAV ; protein stability index = 0.532

Form: sequence = CRAAMYSFFLNF ; protein stability index = 0.674

Form: sequence = SWWISKWVGLNC ; protein stability index = 0.705

Form: sequence = LLYHFCLFFFRE ; protein stability index = 0.521

Form: sequence = MSVLAFVCCLSG ; protein stability index = 0.353

Form: sequence = IPHLNCCCCLVR ; protein stability index = 0.527

Form: sequence = GNSAGSVGGGRF ; protein stability index = 0.695

Form: sequence = VALSILCVFFFF ; protein stability index = 0.253

Form: sequence = LPLVFYCFLLHS ; protein stability index = 0.49

Form: sequence = FPPCSFLGFLVF ; protein stability index = 0.69

Form: sequence = GAICCFCCYLVF ; protein stability index = 0.554

Form: sequence = FQLGLVFCVCSG ; protein stability index = 0.432

Form: sequence = LLLVSLAVPLSL ; protein stability index = 0.524

Form: sequence = GSVGFICCVVVV ; protein stability index = 0.29

Form: sequence = RYCVVDISAFCD ; protein stability index = 0.489

Form: sequence = ILCVEFFVSVSV ; protein stability index = 0.0684

Form: sequence = GLYLVFMGFVPC ; protein stability index = 0.471

Form: sequence = GRGLGHWWTVRT ; protein stability index = 0.672

Form: sequence = YSGRYRTLVRCW ; protein stability index = 0.291

Form: sequence = PFFFIFVLPFVF ; protein stability index = 0.456

Form: sequence = LLVFSLLYPCLV ; protein stability index = 0.324

Form: sequence = TPRQYVVSLSLC ; protein stability index = 0.579

Form: sequence = WVLFRLPYQFFS ; protein stability index = 0.668

Form: sequence = VLVVASLRFSFF ; protein stability index = 0.207

Form: sequence = PWAHIRTVQTYV ; protein stability index = 0.673

Form: sequence = DILCGRCMIVGA ; protein stability index = 0.592

Form: sequence = EWAILSLGVMCV ; protein stability index = 0.0657

Form: sequence = TVGVGWVWVGVL ; protein stability index = 0.567

Form: sequence = VLLSFVFCGWVR ; protein stability index = 0.458

Form: sequence = AEVLCEIVIALR ; protein stability index = 0.582

Form: sequence = IWVVIISDSRVG ; protein stability index = 0.334

Form: sequence = FLFLFIFYFFCC ; protein stability index = 0.269

Form: sequence = EYGLLLTLLAYY ; protein stability index = 0.453

Form: sequence = SLALLFSFLLFL ; protein stability index = 0.504

Form: sequence = NLSYFFFSVLFF ; protein stability index = 0.552

Form: sequence = NYVFALFYMVVA ; protein stability index = 0.196

Form: sequence = LFVVHCFLSVSS ; protein stability index = 0.0267

Form: sequence = LIRLCVAPMVCR ; protein stability index = 0.455

Form: sequence = LFFSPRRLSPPT ; protein stability index = 0.705

Form: sequence = IFPSRSLLAASA ; protein stability index = 0.403

Form: sequence = LGCFGSSFVFCC ; protein stability index = 0.565

Form: sequence = GVSRRWFSLRCI ; protein stability index = 0.627

Form: sequence = RPAVVPPPFAPL ; protein stability index = 0.652

Form: sequence = RHRGHVRLALLN ; protein stability index = 0.7

Form: sequence = SRGRVLRLLLLV ; protein stability index = 0.303

Form: sequence = HRDVISVVRNMS ; protein stability index = 0.625

Form: sequence = VFYRPFFVLFFV ; protein stability index = 0.246

Form: sequence = FPLFCRIHLLCS ; protein stability index = 0.138

Form: sequence = GYACSIFYLRCV ; protein stability index = 0.535

Form: sequence = RNCSFRRIQLAM ; protein stability index = 0.651

Form: sequence = FLSFARSSCLWF ; protein stability index = 0.678

Form: sequence = VVLCQVCVLWGW ; protein stability index = 0.0623

Form: sequence = LFIVTFIPVLFS ; protein stability index = 0.49

Form: sequence = RFKEKVSIIHKQ ; protein stability index = 0.645

Form: sequence = RIEGTLTARTAF ; protein stability index = 0.736

Form: sequence = LVLELYRFARFG ; protein stability index = 0.636

Form: sequence = WWDCAVWVRCGG ; protein stability index = 0.477

Form: sequence = AGGVNWWSSWRV ; protein stability index = 0.739

Form: sequence = WDPEVVHRLWLN ; protein stability index = 0.587

Form: sequence = LSVSEILAVKCG ; protein stability index = 0.559

Form: sequence = IDLVAFCTIFAL ; protein stability index = 0.461

Form: sequence = LGRVSAKFFCVL ; protein stability index = 0.654

Form: sequence = PHGLKPHCPTPS ; protein stability index = 0.685

Form: sequence = RITGCWKTYKMQ ; protein stability index = 0.634

Form: sequence = LRCCGALPLYAY ; protein stability index = 0.251

Form: sequence = LWNFYELVVYAM ; protein stability index = 0.046

Form: sequence = PVPPSLLHRPPF ; protein stability index = 0.679

Form: sequence = VPQQWFAETGRC ; protein stability index = 0.72

Form: sequence = VGEQEVVGIGGV ; protein stability index = 0.674

Form: sequence = IFLLFPFSWRIF ; protein stability index = 0.596

Form: sequence = CQVSEWIRYRFL ; protein stability index = 0.681
